Provide the reported HIV 1 infection Protection of cells, % of each item.
System: HIV-1899A strain
Assay details: Antiviral effect in MT-4 cells infected with HIV-1 (MTT, cytopathic effect, syncytium)
Assay type: cell-based
Study conditions: 10 μg/ml, 0.01 TCD50/cell, 5 days
Give bare numbers, in %.

Past entries and their recorded results:
# input Report measured HIV 1 infection Protection of cells, %; entry is Oc1nc(Cl)nc2c1C(c1cccc(Cl)c1)c1c(O)nc(Cl)nc1O2 [Derivative 6]
# output 10.7

# input Report measured HIV 1 infection Protection of cells, %; entry is O=[N+]([O-])c1ccc(C2C3=C(O)NC(O)(S)N=C3Oc3nc(Cl)nc(O)c32)cc1 (stereo not shown) [Derivative 4]
# output 95

Would you be so kind as to report HIV 1 infection Protection of cells, % for each listed record?
1. Oc1nc(Cl)nc2c1C(c1ccccc1)c1c(O)nc(Cl)nc1O2 [Derivative 5]
2. O=[N+]([O-])c1ccc(C2c3c(O)nc(Cl)nc3Oc3nc(Cl)nc(Cl)c32)cc1 (stereo not shown) [Derivative 3]

# output
100
50

---

Tested on: HIV-1899A strain
Assay details: Antiviral effect in MT-4 cells infected with HIV-1 (MTT, cytopathic effect, syncytium)
Format: cell-based
Study conditions: 30 μg/ml, 0.01 TCD50/cell, 5 days
Provide the reported HIV 1 infection Cytopathic effect of the virus, % of each item.

Past entries and their recorded results:
# input For HIV-1899A strain, give HIV 1 infection Cytopathic effect of the virus, % of the listed compound: O=[N+]([O-])c1ccc(C2c3c(O)nc(S)nc3Oc3nc(Cl)nc(O)c32)cc1 (centres unmarked) [Derivative 2]
# output 96-100%

# input For HIV-1899A strain, give HIV 1 infection Cytopathic effect of the virus, % of the listed compound: Oc1nc(Cl)nc2c1C(c1cccc(Cl)c1)c1c(O)nc(Cl)nc1O2 [Derivative 6]
# output 37.5-62.5%

# input For HIV-1899A strain, give HIV 1 infection Cytopathic effect of the virus, % of the listed compound: COc1ccc(C2c3c(O)nc(Cl)nc3Oc3nc(Cl)nc(O)c32)cc1 [Derivative 7]
# output 5-15%

# input For HIV-1899A strain, give HIV 1 infection Cytopathic effect of the virus, % of the listed compound: O=[N+]([O-])c1ccc(C2c3c(O)nc(Cl)nc3Oc3nc(Cl)nc(Cl)c32)cc1 (centres unmarked) [Derivative 3]
# output 18-92%

# input For HIV-1899A strain, give HIV 1 infection Cytopathic effect of the virus, % of the listed compound: Cc1nnc(C(=O)NC(C)(C)c2nc(C(=O)NCc3ccc(F)cc3)c(O)c(=O)n2C)o1 [Raltegravir, reference compound]
# output 0.0-0.0%

# input For HIV-1899A strain, give HIV 1 infection Cytopathic effect of the virus, % of the listed compound: Oc1nc(Cl)nc2c1C(c1ccccc1)c1c(O)nc(Cl)nc1O2 [Derivative 5]
# output 57.5-80.0%

# input For HIV-1899A strain, give HIV 1 infection Cytopathic effect of the virus, % of the listed compound: O=[N+]([O-])c1ccc(C2C3=C(O)NC(O)(S)N=C3Oc3nc(Cl)nc(O)c32)cc1 (centres unmarked) [Derivative 4]
# output 15-60%

Next, consider the following compound.
# input For HIV-1899A strain, give HIV 1 infection Cytopathic effect of the virus, % of the listed compound: O=[N+]([O-])c1ccc(C2c3c(O)nc(Cl)nc3Oc3nc(Cl)nc(O)c32)cc1 [Derivative 1]
# output 0.0-0.0%

---

Provide the reported HIV 1 infection Cytopathic effect of the virus, % of each item.
Test system: HIV-1899A strain
Assay details: Antiviral effect in MT-4 cells infected with HIV-1 (MTT, cytopathic effect, syncytium)
Type: cell-based
Study conditions: 50 μg/ml, 0.01 TCD50/cell, 5 days

Would you be so kind as to report HIV 1 infection Cytopathic effect of the virus, % for each listed record?
1. O=[N+]([O-])c1ccc(C2c3c(O)nc(Cl)nc3Oc3nc(Cl)nc(Cl)c32)cc1 (centres unmarked)
2. Oc1nc(Cl)nc2c1C(c1cccc(Cl)c1)c1c(O)nc(Cl)nc1O2
3. Cc1nnc(C(=O)NC(C)(C)c2nc(C(=O)NCc3ccc(F)cc3)c(O)c(=O)n2C)o1 [Raltegravir, reference compound]
4. O=[N+]([O-])c1ccc(C2c3c(O)nc(Cl)nc3Oc3nc(Cl)nc(O)c32)cc1
5. COc1ccc(C2c3c(O)nc(Cl)nc3Oc3nc(Cl)nc(O)c32)cc1
6. Oc1nc(Cl)nc2c1C(c1ccccc1)c1c(O)nc(Cl)nc1O2
7. O=[N+]([O-])c1ccc(C2c3c(O)nc(S)nc3Oc3nc(Cl)nc(O)c32)cc1 (centres unmarked)

# output
10-40%
0.0-0.0%
0.0%
0.0-0.0%
0.0-0.0%
37.5-62.5%
55-80%

# input Report measured HIV 1 infection Cytopathic effect of the virus, %; entry is O=[N+]([O-])c1ccc(C2C3=C(O)NC(O)(S)N=C3Oc3nc(Cl)nc(O)c32)cc1 (centres unmarked)
# output 0.0-0.0%

---

Test system: HIV-1899A strain
Assay details: Antiviral effect in MT-4 cells infected with HIV-1 (MTT, cytopathic effect, syncytium)
Type: cell-based
Study conditions: 30 μg/ml, 0.01 TCD50/cell, 5 days
Provide the reported HIV 1 infection Protection of cells, % of each item.

Past entries and their recorded results:
# input For HIV-1899A strain, give HIV 1 infection Protection of cells, % of the listed molecule: O=[N+]([O-])c1ccc(C2C3=C(O)NC(O)(S)N=C3Oc3nc(Cl)nc(O)c32)cc1 (stereo not shown)
# output 50%

# input For HIV-1899A strain, give HIV 1 infection Protection of cells, % of the listed molecule: O=[N+]([O-])c1ccc(C2c3c(O)nc(Cl)nc3Oc3nc(Cl)nc(Cl)c32)cc1 (stereo not shown)
# output 30%

# input For HIV-1899A strain, give HIV 1 infection Protection of cells, % of the listed molecule: COc1ccc(C2c3c(O)nc(Cl)nc3Oc3nc(Cl)nc(O)c32)cc1
# output 80%

Next, consider the following molecule.
# input For HIV-1899A strain, give HIV 1 infection Protection of cells, % of the listed molecule: Oc1nc(Cl)nc2c1C(c1cccc(Cl)c1)c1c(O)nc(Cl)nc1O2
# output 71.7%

---

Test system: HIV-1899A strain
Assay details: Antiviral effect in MT-4 cells infected with HIV-1 (MTT, cytopathic effect, syncytium)
Format: cell-based
Study conditions: 10 μg/ml, 0.01 TCD50/cell, 5 days
Measured property: HIV 1 infection Protection of cells, % (%)
Numbers only, in %.

Past entries and their recorded results:
# input For HIV-1899A strain, give HIV 1 infection Protection of cells, % of the listed compound: O=[N+]([O-])c1ccc(C2c3c(O)nc(S)nc3Oc3nc(Cl)nc(O)c32)cc1 (stereo not shown) [Derivative 2]
# output 100

# input For HIV-1899A strain, give HIV 1 infection Protection of cells, % of the listed compound: Cc1nnc(C(=O)NC(C)(C)c2nc(C(=O)NCc3ccc(F)cc3)c(O)c(=O)n2C)o1 [Raltegravir, reference compound]
# output 90

# input For HIV-1899A strain, give HIV 1 infection Protection of cells, % of the listed compound: COc1ccc(C2c3c(O)nc(Cl)nc3Oc3nc(Cl)nc(O)c32)cc1 [Derivative 7]
# output 45

Next, consider the following compound.
# input For HIV-1899A strain, give HIV 1 infection Protection of cells, % of the listed compound: O=[N+]([O-])c1ccc(C2c3c(O)nc(Cl)nc3Oc3nc(Cl)nc(O)c32)cc1 [Derivative 1]
# output 100
